- test-description: Bioavailability / plasma pharmacokinetics
- Assay type: in vivo
- particulars: rat, po, p.o. 3 mg/kg, male SD rats, read-out: Cmax nM
- Method: Male SD rats were dosed intravenously at 1 mg/kg and orally at 1, 3, and 10 mg/kg. Plasma concentration as a function of time is depicted in FIG. 15.
readout-name: Cmax (nM)
Enter your answer as a number in nM; do not include the unit.

Entry CNC(=O)[C@@]12C[C@@H]1[C@@H](n1cnc3c(NC)nc(C#Cc4ccc(Cl)s4)nc31)[C@H](O)[C@@H]2O — recorded Cmax = 101

###

Provide the reported Ki of each item.
Numbers only; they are read as nM.

Entry CNC(=O)[C@]12CC1[C@@H](n1cnc3c(NC)nc(N=[N+]=[N-])nc31)[C@H](O)C2O (some centres unmarked) , hA3AR (Homo sapiens (Human), UniProt P0DMS8) data, Ki value: 0.54

Tested on hA3AR (Homo sapiens (Human), UniProt P0DMS8), the item CNC(=O)[C@]12CC1[C@@H](n1cnc3c(NC)nc(-n4cc(-c5ccccn5)nn4)nc31)[C@H](O)C2O (some centres unmarked) showed Ki equal to 1.84

Log: hA3AR (Homo sapiens (Human), UniProt P0DMS8), molecule CNC(=O)[C@]12CC1[C@@H](n1cnc3c(NC)nc(-n4cc(-c5cnn(C)c5)nn4)nc31)[C@H](O)C2O (some centres unmarked) , Ki = 2.16

Param item: CNC(=O)[C@]12CC1[C@@H](n1cnc3c(NCc4cccc(Cl)c4)nc(-n4cc(-c5ccc(Cl)s5)nn4)nc31)[C@H](O)C2O (some centres unmarked) ; param system: hA3AR (Homo sapiens (Human), UniProt P0DMS8); output Ki: 11.7

Ki of CNC(=O)[C@@]12C[C@@H]1[C@@H](n1cnc3c(NC)nc(C#Cc4ccc(OC)cc4)nc31)[C@H](O)[C@@H]2O , assay on hA3AR (Homo sapiens (Human), UniProt P0DMS8), is 0.63

Every entry's value here was drawn from patent US10577368B2.
